MEASUREMENT_NOTES: AUC(0 to t) in Sprague-Dawley rat at 10 mg/kg, po measured at 2 hrs by LC-MS/MS analysis
Type: ADME, organism-based
RUN_CONDITIONS: in vivo

COMPOUND	AUCt (ng·h/mL)
CCCCC(O)c1ccc(Br)cc1-c1nn[nH]n1 (stereo unspecified)	5240

====

System: N2a
MEASUREMENT_NOTES: Neuroprotective activity against OGD/R induced cell injury in mouse N2a cells assessed as cell viability at 10 uM preincubated under hypoxic condition for 2 hrs and measured after 24 hrs (reference value: 28.66 to 30.22 %)
Type: functional
RUN_CONDITIONS: time 26 hrs, read-out: Activity
Reported viability at 10 µM by item:

COMPOUND	UNIT_ABBREV	viability at 10 µM
CCCCC(O)c1ccc(Br)cc1-c1nnn(CC)n1 (configuration not stated)	%	53.6
CCCCCC(O)c1ccccc1-c1nn[nH]n1 (configuration not stated)	%	35.6
CCCCCC(O)c1ccc(Br)cc1-c1nn[nH]n1 (configuration not stated)	%	38
CCCCC(O)c1ccccc1-c1ccc[nH]1 (configuration not stated)	%	38.6
CCCCC(O)c1ccc(Br)cc1-c1nn[nH]n1 (configuration not stated)	%	56.6
CCCC(O)c1ccc(C2=CCCCC2)cc1-c1nn[nH]n1 (configuration not stated)	%	39.1
CCCCC(O)c1ccc(F)cc1-c1nn[nH]n1 (configuration not stated)	%	35.1

meta.source: ChEMBL document CHEMBL5579827
